- Experimental System: undecaprenyl diphosphate synthase (UPPS)
- Experiment Notes: UPPS inhibition
- Type: biochemical
- Study Conditions: read-out: UPPS IC50; both UPPS enzymes, approximate
pIC50: −log10 of the molar value.
Value Kind: pIC50

What pIC50 value was documented for this compound, O=C(Nc1cccc(C2=NCCCN2)c1)c1ccc(-c2ccc(C(=O)Nc3cccc(C4=NCCCN4)c3)cc2)cc1 [Compound 10] ?
~5.30
